Cited source: the RNAGym collection of RNA variant scans (doi:10.7554/elife.80360)

B1: HDV Ribozyme (parent)
chain: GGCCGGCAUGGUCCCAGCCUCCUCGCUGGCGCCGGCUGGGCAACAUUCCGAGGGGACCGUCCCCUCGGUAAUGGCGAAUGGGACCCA

- Variants of: B1
- assay: self-cleavage, relative activity (ratio to wild type); higher = more cleavage; co-transcriptional
readout kind: self-cleavage

1) G17U G81U    0.381
2) C18A U37G    0.185
3) U9G G74A    0.751
4) G1U C15A    0.302
5) G39U A70C    0.536
6) C48A A78U    0.242
7) U65A C85A    0.858
8) C18G A56C    0.0755
9) U27G C64A    0.705
10) C19G C41G    0.0573
11) U23G C58G    0.72
12) C57A C61A    1.05
13) C21G C85A    0.0504
14) G29C C66A    0.0475
15) C32A G68U    0.0906
16) U37C A78U    0.161
17) G17A A83C    0.665
18) G34C C61U    0.154
19) C14G G38C    0.142
20) G10C G34A    0.166
21) G1A C7U    0.0475
22) U12C C57A    0.268
23) C19G G40U    0.0997
24) U9G C19A    0.208
25) G34U G80C    0.143
26) U65A A83U    0.539
27) C49U    0.96
28) G34C C57U    0.188
29) U47C G74U    0.633
30) G6U G40C    0.193
31) C18G G28U    0.0405
32) C21U A77G    0.232
33) G35A A56G    0.769
34) C30U G39A    0.273
35) C14A G50C    0.639
36) C44U G59A    0.819
37) G39U C44A    0.0627
